Assay: protein stability index of a GFP-peptide fusion (yeast GPS) (PSI 1-4); higher = more stable; sorted into four equal gates, so the index is relative within each strain
Settings: pdr5∆
measured-property: protein stability index
API doc: respond with a numeric literal and nothing else, no unit.

Before answering, review these 2 worked examples.
{"columns": ["sequence", "protein stability index"],
 "data": [
  ["HLGKGTMTMDVFNDAHV [RPN1]", 2.98],
  ["LEYYAMLSKTKVYYFQG [RPL30]", 3.08]
]}

Req: Quick check: protein stability index of KKSLEEDDEFEDFPIDT [SEM1] ?
Resp: 3.02

Req: Try this sequence next: TGNGTTTTSNTSGTNIA [YOR098C/NUP1]
Resp: 2.69

Req: What do you get for LLLSRVRADDLSTRFNI [RRP43] ?
Resp: 3.07

Req: Another sequence to check: DENGDKNDNGGKMNNEV [SWI3]
Resp: 3.41

Req: Lookup EFVDDYTVNVVDVFAMP [RPN11]
Resp: 3.01

Req: Same for SSFEKFNDSQAIVCYIL [SRP72]
Resp: 2.53

Req: Ok, now PDSNHLSSETGIKLALD [SRB4]
Resp: 3.35

Req: What would you report for GAVGLKDLTLCRYSCLA [YCS4] ?
Resp: 2.42
